All values here come from patent US20210246166A1.

# Target Of Assay: T1, recombinant rat MASP1 active protease (amino acids 302-704, C-terminal His Tag) (rat, UniProt Q8CHN8 302-704)
# T1 sequence: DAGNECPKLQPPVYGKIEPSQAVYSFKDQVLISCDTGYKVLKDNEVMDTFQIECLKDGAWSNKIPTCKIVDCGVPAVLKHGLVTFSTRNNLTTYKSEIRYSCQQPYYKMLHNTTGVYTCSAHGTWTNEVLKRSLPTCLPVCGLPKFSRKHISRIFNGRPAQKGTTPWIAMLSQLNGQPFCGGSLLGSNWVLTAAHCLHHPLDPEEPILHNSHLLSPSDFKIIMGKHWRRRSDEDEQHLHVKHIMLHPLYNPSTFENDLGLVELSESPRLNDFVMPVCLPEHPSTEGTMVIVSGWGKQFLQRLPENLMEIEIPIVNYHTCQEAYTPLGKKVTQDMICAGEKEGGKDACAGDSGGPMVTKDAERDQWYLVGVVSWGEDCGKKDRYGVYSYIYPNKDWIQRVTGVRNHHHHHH
# Measurement Description: cell-based or functional assay
Bridge positions count the residues as written; N and C are the ends. Square brackets hold non-standard residues; d marks the D form. Ends that are not written are not given here. tBuAla = CC(C)(C)C[C@H](N)C(=O)O; Pen = CC(C)(S)[C@H](N)C(=O)O; Sar = CNCC(=O)O
Endpoint Name: rat MASP1 IC50 (nM)

[
  {
    "Binder": "[Sar]ICSRS[tBuAla]PPI[Pen]IP[Sar][Sar][Sar]-OH (disulfide 3-11; N-terminus assumed; SMILES CC[C@H](C)[C@H](NC(=O)CNC)C(=O)N[C@H]1CSSC(C)(C)[C@@H](C(=O)N[C@H](C(=O)N2CCC[C@H]2C(=O)N(C)CC(=O)N(C)CC(=O)N(C)CC(=O)O)[C@@H](C)CC)NC(=O)[C@H]([C@@H](C)CC)NC(=O)[C@@H]2CCCN2C(=O)[C@@H]2CCCN2C(=O)[C@H](CC(C)(C)C)NC(=O)[C@H](CO)NC(=O)[C@H](CCCNC(=N)N)NC(=O)[C@H](CO)NC1=O) [Example 497: ((N-Me)G)-IC+SRS-((tBu)A)-PPI-(Pen)+IP-((N-Me)G)-((N-Me)G)-((N-Me)G)-OH]",
    "Unit Spec": "nM",
    "Recorded Number": 58
  }
]
